Listing of entries alongside the reported Kd.
# targetSystem: CD30 fused to the Fc region of IgG1 (R&D Systems) (UniProt P28908)
# runDescription: SPR, CD30-Fc on Protein A chip
Give the quantity in nM, number only.

Use the examples below as a reference point.
>  <binder>
AC10 H3L1 (H3 AC10 VH, L1 AC10 VL) (antibody, from a related filing, IgG1, V domains shown) VH: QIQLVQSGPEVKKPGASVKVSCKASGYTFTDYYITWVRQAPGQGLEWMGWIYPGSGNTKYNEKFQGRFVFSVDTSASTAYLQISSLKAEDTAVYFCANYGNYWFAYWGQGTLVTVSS VL: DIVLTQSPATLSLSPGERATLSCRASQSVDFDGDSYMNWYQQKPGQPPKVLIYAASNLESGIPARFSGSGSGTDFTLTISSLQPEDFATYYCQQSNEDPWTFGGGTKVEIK

>  <resultUnits>
nM

>  <Kd>
2.44

$$$$
>  <binder>
AC10 H2L1 (H2 AC10 VH, L1 AC10 VL) (antibody, from a related filing, IgG1, V domains shown) VH: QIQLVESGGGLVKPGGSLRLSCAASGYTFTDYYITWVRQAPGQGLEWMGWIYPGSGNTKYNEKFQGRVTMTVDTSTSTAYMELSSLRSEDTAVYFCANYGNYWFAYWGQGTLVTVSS VL: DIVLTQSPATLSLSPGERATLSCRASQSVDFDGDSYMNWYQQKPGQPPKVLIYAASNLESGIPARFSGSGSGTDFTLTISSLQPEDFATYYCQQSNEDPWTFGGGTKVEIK

>  <resultUnits>
nM

>  <Kd>
9.49

$$$$
>  <binder>
AC10 H1L3 (H1 AC10 VH, L3 AC10 VL) (antibody, from a related filing, IgG1, V domains shown) VH: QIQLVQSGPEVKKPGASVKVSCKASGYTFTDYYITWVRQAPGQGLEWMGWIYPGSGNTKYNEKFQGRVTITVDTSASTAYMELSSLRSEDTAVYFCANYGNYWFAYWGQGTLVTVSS VL: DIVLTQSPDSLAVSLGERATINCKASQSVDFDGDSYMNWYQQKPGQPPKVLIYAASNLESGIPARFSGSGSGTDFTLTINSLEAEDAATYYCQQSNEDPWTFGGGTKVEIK

>  <resultUnits>
nM

>  <Kd>
5.09

$$$$
>  <binder>
AC10 H1L1 (H1 AC10 VH, L1 AC10 VL) (antibody, from a related filing, IgG1, V domains shown) VH: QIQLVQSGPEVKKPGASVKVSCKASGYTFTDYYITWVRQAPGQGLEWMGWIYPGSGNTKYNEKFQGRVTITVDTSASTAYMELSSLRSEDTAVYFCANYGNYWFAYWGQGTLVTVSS VL: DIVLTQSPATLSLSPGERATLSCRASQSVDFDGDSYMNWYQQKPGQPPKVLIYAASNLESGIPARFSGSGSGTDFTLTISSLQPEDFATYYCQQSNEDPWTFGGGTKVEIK

>  <resultUnits>
nM

>  <Kd>
5.63

$$$$
>  <binder>
AC10 H3L3 (H3 AC10 VH, L3 AC10 VL) (antibody, from a related filing, IgG1, V domains shown) VH: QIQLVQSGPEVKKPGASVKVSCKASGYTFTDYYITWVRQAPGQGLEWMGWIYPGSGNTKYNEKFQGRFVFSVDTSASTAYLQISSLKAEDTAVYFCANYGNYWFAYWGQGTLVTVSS VL: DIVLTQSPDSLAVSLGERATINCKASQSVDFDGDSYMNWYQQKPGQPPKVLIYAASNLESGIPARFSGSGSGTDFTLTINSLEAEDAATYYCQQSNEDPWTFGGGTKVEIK

>  <resultUnits>
nM

>  <Kd>
2.33

$$$$

With those in mind, consider the next binder.
input: For the binder AC10 H2L3 (H2 AC10 VH, L3 AC10 VL) (antibody, from a related filing, IgG1, V domains shown) VH: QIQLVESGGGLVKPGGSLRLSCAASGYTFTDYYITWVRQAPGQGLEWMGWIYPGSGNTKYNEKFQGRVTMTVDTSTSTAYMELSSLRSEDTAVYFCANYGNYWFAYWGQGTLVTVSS VL: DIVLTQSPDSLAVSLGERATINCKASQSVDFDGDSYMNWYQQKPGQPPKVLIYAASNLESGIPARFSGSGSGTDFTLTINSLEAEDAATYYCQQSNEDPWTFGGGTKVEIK , give its reported Kd.
output: 6.75
